MEASUREMENT_NOTES: Half life in ICR mouse at 5 mg/kg, iv measured after 1440 mins by HPLC analysis
Assay type: ADME, organism-based
REPORTED_CONDITIONS: in vivo
MEASURED_METRIC: half-life (h)
Write down the numeric answer in h and omit the unit.

Query string: Any idea what its half-life is? The compound is CS(=O)(=O)c1nc(Nc2ccc(F)c(Cl)c2)cc(NC2CCC(N)CC2)n1.Cl (stereo unspecified)
Result string: 4.8

----------
MEASUREMENT_NOTES: AUClast in ICR mouse at 10 mg/kg, iv measured after 1440 mins by HPLC analysis
Assay type: ADME, organism-based
Parameters: route intravenous, dose 10 mg/kg, time 1440 min
REPORTED_CONDITIONS: in vivo
MEASURED_METRIC: AUC(0-t) at 24 h

Query string: Any idea what its AUC(0-t) at 24 h is? The compound is `CS(=O)(=O)c1nc(Nc2ccc(F)c(Cl)c2)cc(N2CCNCC2)n1.Cl`
Result string: 2370 ng·h/mL
